Quick note: these are IC50 numbers for system: KRas WT (Homo sapiens, UniProt P01116);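 note: binding to KRas read as TR-FRET displacement after a one-hour room-temperature incubation, IC50 derived from percent-of-control values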
Sequence (P01116 1-169 isoform P01116-2): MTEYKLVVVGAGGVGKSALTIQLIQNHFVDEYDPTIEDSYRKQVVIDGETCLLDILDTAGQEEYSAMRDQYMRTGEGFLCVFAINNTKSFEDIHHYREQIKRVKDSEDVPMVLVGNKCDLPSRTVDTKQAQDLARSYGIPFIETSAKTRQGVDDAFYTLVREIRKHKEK
METRIC NAME: IC50 (µM)

[P] O=C1CC2(CCCN(c3nc(OCC45CCCN4CCC5)nc4c(F)c(-c5cccc6cccc(C(F)F)c56)ncc34)C2)N1 (centres unmarked)
[Q] Fc1c(-c2cccc3cccc(F)c23)ncc2c(NCc3cnn4cccnc34)nc(OCC34CCCN3CCC4)nc12
Task for the reader: decide whether P or Q has the larger IC50. API: response body contains the label of the selected item.
Q
(Q: 60 µM, P: 2.68 µM)

###

- Test system: phospho-ERK in NCI-H460 (Q61H) cells
- PROTOCOL DESCRIPTION: Inhibition of KRas-mediated phosphorylation of ERK (in-cell western)
- Type: cell-based
- ASSAY CONDITIONS: 3 hours compound, phospho-ERK normalized to GAPDH
METRIC NAME: IC50 (nM)
Return type: number; implicit unit nM.

molecule="CCc1c(F)ccc2cc(O)cc(-c3ncc4c(N5C[C@H](O)C[C@@H](O)C5)nc(OC[C@@]56CCCN5C[C@H](F)C6)nc4c3F)c12 [Example 59]" unit_name=nM recorded_value=296

Let us examine a further case.
Return reported IC50; argument: CCc1c(F)ccc2cc(O)cc(-c3ncc4c(N5C[C@H](O)C[C@@H](O)C5)nc(OC[C@@]56CCCN5C[C@H](F)C6)nc4c3F)c12 [Example 296]
619

Data credit: patent US12398154B2
